System: rape
Assay: Test B pre/postemergence rape
Assay type: in vivo, Brassica napus
Settings: Preemergence, Rate 500 g/ha; scale 0 (no effect) to 10 (complete control)
value_kind: Rape plant response rating
Give bare numbers.

Example entries and their recorded answers appear below.
{"molecule": "CCN(CC)C(=O)n1oc(=O)n(-c2c(C)cccc2C)c1=O [Compound 2]", "assay_system": "rape", "observed_result": 0}
{"molecule": "CC(C)N(C(=O)n1oc(=O)n(Cc2cccs2)c1=O)c1ccc(F)cc1F [Compound 86]", "assay_system": "rape", "observed_result": 4}
{"molecule": "Cc1ccc(N(C(=O)n2oc(=O)n(-c3ccccc3C)c2=O)C(C)C)cc1 [Compound 40]", "assay_system": "rape", "observed_result": 0}

Read the next record carefully.
Give the reported Rape plant response rating for CCN(Cc1ccccc1)C(=O)n1oc(=O)n(-c2c(C)cccc2C)c1=O [Compound 70] (system: rape).
0

###

System: bedstraw
Assay: Test B pre/postemergence bedstraw
Assay type: in vivo, Galium aparine
Settings: Rate 125 g/ha; Preemergence; scale of 0 to 10 where 0 is no effect and 10 is complete control
value_kind: Bedstraw plant response rating
Numbers only.

// for each compound below, give its Bedstraw plant response rating
1. COC(=O)Cn1c(=O)on(C(=O)N(c2ccc(F)cc2)C(C)C)c1=O [Compound 215]
2. CCCCc1ccc(N(C(=O)n2oc(=O)n(-c3ccccc3C)c2=O)C(C)C)cc1 [Compound 229]
3. Cc1ccccc1-n1c(=O)on(C(=O)N(c2ccc3c(c2)CCC3)C(C)C)c1=O [Compound 278]

1. 0
2. 0
3. 0

###

System: velvetleaf
Assay: Test B pre/postemergence velvetleaf
Type: in vivo, Abutilon theophrasti
Conditions: Preemergence, Rate 250 g/ha; scale of 0 to 10 where 0 is no effect and 10 is complete control
value_kind: Plant response rating, Velvetleaf
Answers are plain numbers.

Use the examples below as a reference point.
{"input_smiles": "CC(C)N(C(=O)n1oc(=O)n(-c2c(Cl)cccc2Cl)c1=O)c1ccc(F)cc1", "Plant response rating, Velvetleaf": 0}
{"input_smiles": "CC(C)N(C(=O)n1oc(=O)n(C2CCCCC2)c1=O)c1ccccc1", "Plant response rating, Velvetleaf": 4}
{"input_smiles": "CCN(CC)C(=O)n1oc(=O)n(-c2c(C)cccc2C)c1=O", "Plant response rating, Velvetleaf": 0}

Entry under review: COc1ccccc1Cn1c(=O)on(C(=O)N(c2ccccc2)C(C)C)c1=O . Reported Plant response rating, Velvetleaf?
0

###

Test system: velvetleaf
Experiment: Test B pre/postemergence velvetleaf
Assay type: in vivo, Abutilon theophrasti
Settings: Preemergence, Rate 125 g/ha; scale 0 to 10, 0 is no effect, 10 is complete control
value_kind: Velvetleaf plant response rating
Give bare numbers.

{"compound": "CC(C)N(C(=O)n1oc(=O)n(CCC(F)=C(F)F)c1=O)c1ccccc1", "assay_system": "velvetleaf", "observed_result": 0}
{"compound": "CC(Cl)=CCn1c(=O)on(C(=O)N(c2ccc(F)cc2F)C(C)C)c1=O", "assay_system": "velvetleaf", "observed_result": 0}
{"compound": "CC(C)N(C(=O)n1oc(=O)n(CC2=NCCO2)c1=O)c1ccccc1", "assay_system": "velvetleaf", "observed_result": 0}

Each compound below has a reported value. Please supply its Velvetleaf plant response rating.
1. CC(C)N(C(=O)n1oc(=O)n(CC2OCCO2)c1=O)c1ccc(F)cc1F
2. CC(C)N(C(=O)n1oc(=O)n(C(C)C(=O)c2ccccc2)c1=O)c1ccccc1 (centres unmarked)

[2, 0]

// provenance: patent US6737383B1
